target.entity: DNA polymerase theta (Homo sapiens)
test.description: Inhibition of N-terminal His8-tagged/C-terminal FLAG-tagged full length human DNA polymerase theta ( 1 to 2590 residues) polymerase activity expressed in HEK2936E cells
Type: cell-based
endpoint.label: IC50 (nM)

- smiles.repr: "Nc1ccc(C#CCN(C(=O)Cc2ncc(C(F)(F)F)cc2C(F)(F)F)c2ccc(F)cc2)nn1"
  target.entity: "DNA polymerase theta (Homo sapiens)"
  endpoint.label: "IC50"
  observed.value: 0.55

----------
target.entity: DNA polymerase theta (Homo sapiens)
test.description: Inhibition of human DNA polymerase theta pol domain (1819 to 2590 residues) expressed in Escherichia coli BL21 (DE3) cells preincubated for 15 mins followed by DNA and dNTP addition and measured after 120 mins by Picogreen dye fluorescence intensity analysis
So basically, the class depends on measured IC50, and the ranges are class 0: < 2 nM; class 1: ≥ 2 nM and < 40 nM; class 2: ≥ 40 nM

- compound: "CN(C(=O)Cn1nc(C(F)(F)F)c2c1CCCC2)c1ccccc1"
  label.value: "class 2"
- compound: "O=C(Cc1ncc(C(F)(F)F)cc1C(F)(F)F)N(CC#Cc1cnn(C2CNC2)c1)c1ccc(F)cc1"
  label.value: "class 0"
- compound: "CN(C(=S)Cn1nc2c(c1C(F)(F)F)CCC2)c1ccccc1"
  label.value: "class 1"
- compound: "Cn1cnc(C#CCN(C(=O)Cc2ncc(C(F)(F)F)cc2C(F)(F)F)c2ccc(F)cc2)c1"
  label.value: "class 1"
- compound: "N#CCN(C(=O)Cc1ccc(C(F)(F)F)cc1C(F)(F)F)c1ccccc1"
  label.value: "class 2"
- compound: "O=C(Cc1ccc(C(F)(F)F)cc1C(F)(F)F)N(CC#Cc1cccnc1)c1ccccc1"
  label.value: "class 1"
- compound: "CC(C(N)=O)n1cc(C#CCN(C(=O)Cc2ncc(C(F)(F)F)cc2C(F)(F)F)c2ccc(F)cc2)cn1 (centres undefined)"
  label.value: "class 0"
- compound: "O=C(NCC#CCN(C(=O)Cc1ccc(C(F)(F)F)cc1C(F)(F)F)c1ccccc1)c1ccccn1"
  label.value: "class 0"
- compound: "CN(C(=O)Cn1nc2c(c1C(F)(F)F)CCC2(C)C)c1ccccc1"
  label.value: "class 2"
- compound: "CN(C(=O)Cn1nc2c(c1C(F)(F)F)CNCC2)c1ccccc1"
  label.value: "class 2"
- compound: "COc1ccc(C#CCN(C(=O)Cc2ncc(C(F)(F)F)cc2C(F)(F)F)c2ccc(F)cc2)nn1"
  label.value: "class 1"
- compound: "CN(C(=O)Cn1nc2c(c1C(F)(F)F)CS(=O)(=O)C2)c1ccccc1"
  label.value: "class 2"
- compound: "[2H]C([2H])([2H])N(C(=O)Cc1ccc(C(F)(F)F)cc1C(F)(F)F)c1ccc(F)cc1"
  label.value: "class 1"
- compound: "Cn1nc(N)cc1C#CCN(C(=O)Cc1ncc(C(F)(F)F)cc1C(F)(F)F)c1ccc(F)cc1"
  label.value: "class 0"
- compound: "CC1CCc2nn(CC(=O)N(C)c3ccccc3)c(C(F)(F)F)c21 (centres undefined)"
  label.value: "class 2"
- compound: "CC(=O)NCC#CCN(C(=O)Cc1ccc(C(F)(F)F)cc1C(F)(F)F)c1ccccc1"
  label.value: "class 0"
- compound: "CS(=O)(=O)Cn1cc(C#CCN(C(=O)Cc2ncc(C(F)(F)F)cc2C(F)(F)F)c2ccc(F)cc2)cn1"
  label.value: "class 0"
- compound: "Nc1cnc(C#CCN(C(=O)Cc2ncc(C(F)(F)F)cc2C(F)(F)F)c2ccc(F)cc2)cn1"
  label.value: "class 1"
- compound: "CC1Cc2nn(CC(=O)N(C)c3ccccc3)c(C(F)(F)F)c2C1 (centres undefined)"
  label.value: "class 2"

----------
Entries and their measured f(Cave) follow.
test.description: fCaverage in CD-1 mouse
Assay type: ADME
endpoint.label: f(Cave) (nM)

- compound: "O=C(Cc1ncc(C(F)(F)F)cc1C(F)(F)F)N(CC#Cc1ccc(C2CCNC2)cn1)c1ccc(F)cc1 (stereo not drawn)"
  endpoint.label: "f(Cave)"
  observed.value: 30
- compound: "Cn1nc(N)cc1C#CCN(C(=O)Cc1ncc(C(F)(F)F)cc1C(F)(F)F)c1ccc(F)cc1"
  endpoint.label: "f(Cave)"
  observed.value: 65
- compound: "Cn1cnc(C#CCN(C(=O)Cc2ncc(C(F)(F)F)cc2C(F)(F)F)c2ccc(F)cc2)c1"
  endpoint.label: "f(Cave)"
  observed.value: 3

----------
target.entity: UniProtKB O75417
test.description: Inhibition of human DNA polymerase theta using DNA 16/19 as substrate at 5 nM of enzyme concentration
pIC50: −log10 of the molar value.

- smiles.repr: "CN(C(=S)Cn1nc2c(c1C(F)(F)F)CCC2)c1ccccc1"
  pIC50: 7.95

----------
test.description: AUC in CD-1 nude mouse at 80 mg/kg, po administered twice daily and measured on day 7 by HPLC-MS analysis
Type: ADME, organism-based
Set-up: time 7 day, dose 80 mg/kg, route po
assay.conditions: in vivo

- smiles.repr: "Nc1ccc(C#CCN(C(=O)Cc2ncc(C(F)(F)F)cc2C(F)(F)F)c2ccc(F)cc2)nn1"
  AUC at 168 h, µM·h: 14.7

----------
target.entity: DNA polymerase theta (Homo sapiens, UniProt O75417)
Sequence (O75417 whole entry, the tested form may be a part): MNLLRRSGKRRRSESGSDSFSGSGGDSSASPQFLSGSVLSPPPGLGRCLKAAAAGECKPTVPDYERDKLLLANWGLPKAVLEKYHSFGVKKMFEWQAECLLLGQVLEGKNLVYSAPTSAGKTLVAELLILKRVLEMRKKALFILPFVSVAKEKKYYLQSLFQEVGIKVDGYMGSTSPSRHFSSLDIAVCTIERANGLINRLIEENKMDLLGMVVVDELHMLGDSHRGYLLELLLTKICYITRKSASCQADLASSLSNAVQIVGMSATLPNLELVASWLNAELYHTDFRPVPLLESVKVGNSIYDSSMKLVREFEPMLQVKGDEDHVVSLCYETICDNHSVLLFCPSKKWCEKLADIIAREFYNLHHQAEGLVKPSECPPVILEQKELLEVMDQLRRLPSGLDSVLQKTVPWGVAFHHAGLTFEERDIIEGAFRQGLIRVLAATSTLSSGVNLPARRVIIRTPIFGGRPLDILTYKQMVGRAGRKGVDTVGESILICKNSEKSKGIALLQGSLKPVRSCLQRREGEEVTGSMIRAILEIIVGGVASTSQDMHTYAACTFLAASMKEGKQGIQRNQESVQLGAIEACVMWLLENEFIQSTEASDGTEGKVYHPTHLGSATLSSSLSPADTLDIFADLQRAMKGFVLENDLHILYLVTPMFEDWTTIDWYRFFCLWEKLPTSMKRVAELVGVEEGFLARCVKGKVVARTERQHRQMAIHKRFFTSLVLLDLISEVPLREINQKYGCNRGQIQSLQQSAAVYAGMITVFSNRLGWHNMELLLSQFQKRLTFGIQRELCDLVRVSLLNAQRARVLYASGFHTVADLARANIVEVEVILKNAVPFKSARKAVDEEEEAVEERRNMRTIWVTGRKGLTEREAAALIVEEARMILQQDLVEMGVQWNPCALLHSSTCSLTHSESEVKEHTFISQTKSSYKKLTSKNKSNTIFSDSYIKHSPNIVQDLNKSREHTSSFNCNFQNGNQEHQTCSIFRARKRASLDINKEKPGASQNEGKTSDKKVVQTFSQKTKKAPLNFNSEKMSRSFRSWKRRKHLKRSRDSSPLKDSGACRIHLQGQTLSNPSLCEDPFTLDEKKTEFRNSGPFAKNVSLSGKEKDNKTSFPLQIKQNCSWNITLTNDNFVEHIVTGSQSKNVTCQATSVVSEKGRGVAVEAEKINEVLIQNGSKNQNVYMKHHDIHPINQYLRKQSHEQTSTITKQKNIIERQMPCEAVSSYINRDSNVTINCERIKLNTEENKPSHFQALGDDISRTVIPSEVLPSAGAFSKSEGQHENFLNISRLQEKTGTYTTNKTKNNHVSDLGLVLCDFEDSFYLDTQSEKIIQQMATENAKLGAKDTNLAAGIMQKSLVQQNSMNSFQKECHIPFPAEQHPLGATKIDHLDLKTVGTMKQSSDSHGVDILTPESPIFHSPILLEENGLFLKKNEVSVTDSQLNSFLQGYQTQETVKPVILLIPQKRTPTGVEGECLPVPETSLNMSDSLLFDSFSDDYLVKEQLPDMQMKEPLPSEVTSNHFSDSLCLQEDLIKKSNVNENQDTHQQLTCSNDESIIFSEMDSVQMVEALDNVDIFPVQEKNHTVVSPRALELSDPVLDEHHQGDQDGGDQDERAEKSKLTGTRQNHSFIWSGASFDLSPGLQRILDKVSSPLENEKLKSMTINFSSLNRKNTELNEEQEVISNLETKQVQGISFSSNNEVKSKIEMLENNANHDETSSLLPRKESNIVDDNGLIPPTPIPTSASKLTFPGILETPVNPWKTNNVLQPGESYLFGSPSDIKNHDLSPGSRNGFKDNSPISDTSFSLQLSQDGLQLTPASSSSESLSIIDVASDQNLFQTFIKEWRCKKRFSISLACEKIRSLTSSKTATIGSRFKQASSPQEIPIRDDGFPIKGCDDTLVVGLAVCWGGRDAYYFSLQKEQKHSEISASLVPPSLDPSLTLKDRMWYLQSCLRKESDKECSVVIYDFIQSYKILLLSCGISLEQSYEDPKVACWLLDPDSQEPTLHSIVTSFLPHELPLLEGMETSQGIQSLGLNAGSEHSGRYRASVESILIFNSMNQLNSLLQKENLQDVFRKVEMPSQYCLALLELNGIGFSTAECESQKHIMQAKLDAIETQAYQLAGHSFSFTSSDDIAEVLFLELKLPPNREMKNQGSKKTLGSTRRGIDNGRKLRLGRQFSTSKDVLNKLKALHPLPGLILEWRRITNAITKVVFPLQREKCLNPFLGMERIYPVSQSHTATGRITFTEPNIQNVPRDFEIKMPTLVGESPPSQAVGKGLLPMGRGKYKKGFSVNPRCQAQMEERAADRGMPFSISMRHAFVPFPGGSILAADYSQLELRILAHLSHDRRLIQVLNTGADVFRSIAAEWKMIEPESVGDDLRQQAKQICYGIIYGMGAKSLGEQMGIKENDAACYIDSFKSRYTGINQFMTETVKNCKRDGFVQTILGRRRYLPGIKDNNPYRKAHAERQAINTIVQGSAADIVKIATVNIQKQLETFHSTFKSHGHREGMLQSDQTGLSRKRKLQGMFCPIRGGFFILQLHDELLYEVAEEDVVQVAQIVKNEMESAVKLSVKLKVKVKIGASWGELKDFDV
test.description: Inhibition of human DNA polymerase theta pol domain (1819 to 2590 residues) expressed in Escherichia coli BL21 (DE3) cells preincubated for 15 mins followed by DNA and dNTP addition and measured after 120 mins by Picogreen dye fluorescence intensity analysis
Threshold 20 nM. IC50 below it: condition met. IC50 at it or above: condition not met.

- smiles.repr: "CN(C(=O)Cc1ncc(C(F)(F)F)cc1C(F)(F)F)c1ccccc1"
  target.entity: "DNA polymerase theta (Homo sapiens, UniProt O75417)"
  label.value: "condition not met"
- smiles.repr: "C#CCN(C(=O)Cc1ccc(C(F)(F)F)cc1C(F)(F)F)c1ccccc1"
  target.entity: "DNA polymerase theta (Homo sapiens, UniProt O75417)"
  label.value: "condition met"
- smiles.repr: "O=C(Cc1ccc(C(F)(F)F)cc1C(F)(F)F)N(CC#Cc1cccc(=O)[nH]1)c1ccccc1"
  target.entity: "DNA polymerase theta (Homo sapiens, UniProt O75417)"
  label.value: "condition met"
- smiles.repr: "O=C(Cc1ccc(C(F)(F)F)cc1C(F)(F)F)N(CC#Cc1ncccn1)c1ccccc1"
  target.entity: "DNA polymerase theta (Homo sapiens, UniProt O75417)"
  label.value: "condition met"
- smiles.repr: "CN(C(=O)Cc1ccc(C(F)(F)F)cc1C(F)(F)F)c1ccc(F)cc1"
  target.entity: "DNA polymerase theta (Homo sapiens, UniProt O75417)"
  label.value: "condition met"

----------
target.entity: DNA polymerase theta (Homo sapiens)
test.description: Inhibition of human DNA polymerase theta using DNA 16/19 as substrate at 0.5 nM of enzyme concentration
endpoint.label: IC50 (nM)

- smiles.repr: "CN(C(=S)Cn1nc2c(c1C(F)(F)F)CCC2)c1ccccc1"
  observed.value: 8.48

----------
assay.conditions: mouse, microsomes
Description: Metabolic stability in mouse liver microsomes assessed as clearance
Entries and their measured CLH follow.

- compound: "CN(C(=O)Cn1nc2c(c1C(F)(F)F)CCC2)c1ccccc1"
  modifier: ">"
  CLH (µL/min/mg): 555
- compound: "CN(C(=O)Cn1nc2c(c1C(F)(F)F)C(O)CC2)c1ccccc1 (centres undefined)"
  modifier: "="
  CLH (µL/min/mg): 46
- compound: "O=C(Cc1ccc(C(F)(F)F)cc1C(F)(F)F)N(CC#Cc1ncccn1)c1ccccc1"
  modifier: "="
  CLH (µL/min/mg): 105
- compound: "CN(C(=O)Cn1nc2c(c1C(F)(F)F)C(=O)NCC2)c1ccccc1"
  modifier: "="
  CLH (µL/min/mg): 18

----------
target.entity: DNA polymerase theta (Homo sapiens, UniProt O75417)
test.description: Inhibition of human DNA polymerase theta using DNA 16/19 as substrate at 2 nM of enzyme concentration
pIC50: −log10 of the molar value.

- smiles.repr: "CN(C(=S)Cn1nc2c(c1C(F)(F)F)CCC2)c1ccccc1"
  pIC50: 8.06

----------
target.entity: DNA polymerase subunit gamma-1 (Homo sapiens)
Sequence (P54098 whole entry): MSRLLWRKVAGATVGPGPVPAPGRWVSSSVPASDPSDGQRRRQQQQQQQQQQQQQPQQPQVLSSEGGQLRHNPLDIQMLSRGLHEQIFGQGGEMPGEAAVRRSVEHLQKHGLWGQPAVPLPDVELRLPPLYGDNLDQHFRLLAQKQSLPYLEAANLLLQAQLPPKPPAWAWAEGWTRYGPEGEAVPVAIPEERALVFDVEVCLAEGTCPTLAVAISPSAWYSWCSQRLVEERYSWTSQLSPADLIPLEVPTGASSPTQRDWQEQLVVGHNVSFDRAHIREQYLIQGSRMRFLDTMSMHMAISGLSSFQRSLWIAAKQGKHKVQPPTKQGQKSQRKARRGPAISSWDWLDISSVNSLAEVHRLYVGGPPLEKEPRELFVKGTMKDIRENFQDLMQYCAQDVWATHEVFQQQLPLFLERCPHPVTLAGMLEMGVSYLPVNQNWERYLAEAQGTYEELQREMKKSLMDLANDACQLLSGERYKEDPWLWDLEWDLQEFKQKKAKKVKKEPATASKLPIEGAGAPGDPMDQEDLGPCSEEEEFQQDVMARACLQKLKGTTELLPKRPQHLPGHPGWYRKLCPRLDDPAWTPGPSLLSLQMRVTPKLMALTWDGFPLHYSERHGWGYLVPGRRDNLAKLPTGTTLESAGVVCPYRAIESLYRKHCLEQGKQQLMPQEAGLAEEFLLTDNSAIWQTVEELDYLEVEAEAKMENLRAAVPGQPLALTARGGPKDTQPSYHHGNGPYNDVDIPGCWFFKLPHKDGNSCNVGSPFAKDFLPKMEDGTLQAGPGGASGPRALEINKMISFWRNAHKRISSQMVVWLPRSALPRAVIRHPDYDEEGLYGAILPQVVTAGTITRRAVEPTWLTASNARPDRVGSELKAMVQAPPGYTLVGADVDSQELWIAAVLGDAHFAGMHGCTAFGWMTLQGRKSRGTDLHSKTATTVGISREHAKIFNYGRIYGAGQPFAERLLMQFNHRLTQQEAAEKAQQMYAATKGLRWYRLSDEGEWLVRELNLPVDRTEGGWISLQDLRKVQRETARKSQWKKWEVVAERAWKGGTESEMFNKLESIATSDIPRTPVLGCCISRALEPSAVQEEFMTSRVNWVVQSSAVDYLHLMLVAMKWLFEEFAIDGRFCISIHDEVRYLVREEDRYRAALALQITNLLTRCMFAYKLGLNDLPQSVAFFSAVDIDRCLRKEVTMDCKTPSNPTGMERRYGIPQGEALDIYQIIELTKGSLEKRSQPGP
test.description: Inhibition of human DNA polymerase gamma
pIC50: −log10 of the molar value.

- smiles.repr: "Nc1ccc(C#CCN(C(=O)Cc2ncc(C(F)(F)F)cc2C(F)(F)F)c2ccc(F)cc2)nn1"
  pIC50: "< 4.00"

----------
test.description: Plasma protein binding in mouse assessed as unbound fraction by equilibrium dailysis
Assay type: ADME, cell-free
If the reported Fu equals or exceeds 0.02, assign fulfilled. If not, assign not fulfilled.

- compound: "O=C(Cc1ncc(C(F)(F)F)cc1C(F)(F)F)N(CC#Cc1ccc(C2CCNC2)cn1)c1ccc(F)cc1 (centres undefined)"
  label.value: "not fulfilled"
- compound: "Nc1cnc(C#CCN(C(=O)Cc2ncc(C(F)(F)F)cc2C(F)(F)F)c2ccc(F)cc2)cn1"
  label.value: "not fulfilled"
- compound: "Cn1cnc(C#CCN(C(=O)Cc2ncc(C(F)(F)F)cc2C(F)(F)F)c2ccc(F)cc2)c1"
  label.value: "not fulfilled"
- compound: "CS(=O)(=O)Cn1cc(C#CCN(C(=O)Cc2ncc(C(F)(F)F)cc2C(F)(F)F)c2ccc(F)cc2)cn1"
  label.value: "not fulfilled"
- compound: "Cn1nc(N)cc1C#CCN(C(=O)Cc1ncc(C(F)(F)F)cc1C(F)(F)F)c1ccc(F)cc1"
  label.value: "fulfilled"
- compound: "Nc1ncc(C#CCN(C(=O)Cc2ncc(C(F)(F)F)cc2C(F)(F)F)c2ccc(F)cc2)cn1"
  label.value: "not fulfilled"
- compound: "O=C(Cc1ncc(C(F)(F)F)cc1C(F)(F)F)N(CC#Cc1cnn(C2CNC2)c1)c1ccc(F)cc1"
  label.value: "fulfilled"
- compound: "CC(C(N)=O)n1cc(C#CCN(C(=O)Cc2ncc(C(F)(F)F)cc2C(F)(F)F)c2ccc(F)cc2)cn1 (centres undefined)"
  label.value: "fulfilled"
- compound: "COc1ncc(C#CCN(C(=O)Cc2ncc(C(F)(F)F)cc2C(F)(F)F)c2ccc(F)cc2)cn1"
  label.value: "not fulfilled"

Just for reference, ChEMBL document CHEMBL5108047 is where these values come from.
